Species: Mus musculus
Assay: Cytotoxicity was evaluated on mice spleen lymphocytes stimulated by Phaseolus Vulgaris Phytohemagglutininin (PHA) after 72 hours
Type: functional
Parameters: unit not given here
Quick rule for you: IC50 under 10 gets t, anything else gets f.

Recorded results for 3 compounds are shown here.
CCOC(=O)/C=C/[C@H]1OCC/C(=C\COCc2ccccc2)[C@@H]1O[Si](C)(C)C(C)(C)C | t
COC(=O)CC(O)[C@H]1OCC/C(=C\COCc2ccccc2)C1O[Si](C)(C)C(C)(C)C (stereo not given in full) | f
CCOC(=O)/C=C/C=C/[C@H]1OCC/C(=C\C(=O)OCC)[C@@H]1O[Si](C)(C)C(C)(C)C | t

Problem: I'd appreciate it if you could check whether O=C1CC(O)[C@H]2OCC/C(=C\COCc3ccccc3)C2O1 (stereo not given in full) has IC50 smaller than 10.
Solution: f

Problem: Identify whether the compound CCOC(=O)/C=C/[C@H]1OCC/C(=C\C(=O)OCC)[C@@H]1O[Si](C)(C)C(C)(C)C records IC50 below 10.
Solution: f
